Assignment: determine reported EC50 for the given compounds.
Molecular target: F876L mutant Androgen Receptor (AR-F876L) (Homo sapiens, UniProt P10275, F877L)
Construct: expressed in transfected cells; host or cells: LNCaP (LNCaP F876L)
Sequence (P10275 1-920 F877L): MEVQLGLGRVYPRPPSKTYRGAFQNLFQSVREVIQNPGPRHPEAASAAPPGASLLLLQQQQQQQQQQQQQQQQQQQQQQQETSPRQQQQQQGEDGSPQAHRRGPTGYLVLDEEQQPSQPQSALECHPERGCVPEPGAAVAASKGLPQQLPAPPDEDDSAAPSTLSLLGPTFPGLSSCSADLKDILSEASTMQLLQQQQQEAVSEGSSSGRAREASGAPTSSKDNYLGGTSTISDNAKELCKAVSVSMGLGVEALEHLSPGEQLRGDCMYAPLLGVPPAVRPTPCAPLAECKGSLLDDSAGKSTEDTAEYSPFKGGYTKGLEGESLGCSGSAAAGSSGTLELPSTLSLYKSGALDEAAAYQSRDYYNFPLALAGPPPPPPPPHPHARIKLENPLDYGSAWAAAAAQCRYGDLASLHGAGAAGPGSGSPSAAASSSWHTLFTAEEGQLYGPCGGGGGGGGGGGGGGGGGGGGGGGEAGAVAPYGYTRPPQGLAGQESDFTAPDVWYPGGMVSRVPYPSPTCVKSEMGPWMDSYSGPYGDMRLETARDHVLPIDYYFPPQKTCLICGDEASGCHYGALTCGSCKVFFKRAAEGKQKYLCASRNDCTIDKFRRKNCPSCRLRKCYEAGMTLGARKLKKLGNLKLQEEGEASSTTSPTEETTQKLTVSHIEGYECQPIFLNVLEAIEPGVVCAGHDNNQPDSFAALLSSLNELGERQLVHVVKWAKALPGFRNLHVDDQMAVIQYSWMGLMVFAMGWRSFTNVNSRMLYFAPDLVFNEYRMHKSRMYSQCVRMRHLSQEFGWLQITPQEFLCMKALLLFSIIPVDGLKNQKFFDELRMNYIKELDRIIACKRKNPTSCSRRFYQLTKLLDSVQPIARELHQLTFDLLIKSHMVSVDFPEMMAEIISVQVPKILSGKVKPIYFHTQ
Assay: LNCaP-AR-F876L AG reporter assay (ARE firefly luciferase, agonist mode)
Type: cell-based

- Smi: "N#Cc1ncc(N2C(=O)C3(CCC3)N(c3cccnc3)C2=S)cc1C(F)(F)F"
  Target of assay: "F876L mutant Androgen Receptor (AR-F876L) (Homo sapiens, UniProt P10275, F877L)"
  EC50: "> 15.1 µM"
- Smi: "Cc1cc(N2C(=O)C3(CCC3)N(c3ccc(C4CCOCC4)cc3)C2=S)cnc1C#N"
  Target of assay: "F876L mutant Androgen Receptor (AR-F876L) (Homo sapiens, UniProt P10275, F877L)"
  EC50: "> 15.1 µM"
- Smi: "N#Cc1ncc(N2C(=O)C3(CCC3)N(c3ccc4[nH]ncc4c3)C2=S)cc1C(F)(F)F"
  Target of assay: "F876L mutant Androgen Receptor (AR-F876L) (Homo sapiens, UniProt P10275, F877L)"
  EC50: "> 15.1 µM"

Switching to the query record.
Query block: Which EC50 reading was recorded for the compound N#Cc1ncc(N2C(=O)C3(CCC3)N(c3ccc(Oc4ccccn4)cc3)C2=S)cc1C(F)(F)F ?
Result block: > 15.1 µM
